B1: CPEB3 Ribozyme (parent)
chain: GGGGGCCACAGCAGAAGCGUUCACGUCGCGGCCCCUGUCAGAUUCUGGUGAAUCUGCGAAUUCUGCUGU

- Variants of: B1
- experiment: self-cleavage, relative activity (ratio to wild type); higher = more cleavage; co-transcriptional
Decision: self-cleavage compared against 0.3; not below it gives Met, below it gives Not met.

- chain.sequence: "UGGGGCCACAGCAGAAGCGUUCACGUCGCGGCCCCUGUCAGAUUCUGGUGAAUCUGCGAAUUCAGCUGU [G1U U64A]"
  discrete.label: "Not met"

Does the variant GGGGGUCACAGCAGAAGCGUUCACGUCGCGGCCCCUGUCAGAUUCGGGUGAAUCUGCGAAUUCUGCUGU [C6U U46G] have recorded self-cleavage that is 0.3 or more?
Met

Does the variant GGGGGCCACUGCAGAAGCGUUCACGCCGCGGCCCCUGUCAGAUUCUGGUGAAUCUGCGAAUUCUGCUGU [A10U U26C] have recorded self-cleavage that is 0.3 or more?
Met

Does the variant GGAGGCCACAGCAGAAGCGUUCACGUCGCGGCCCCUGUCAGAUUUUGGUGAAUCUGCGAAUUCUGCUGU [G3A C45U] have recorded self-cleavage that is 0.3 or more?
Met

Does the variant GGGGGCCACAGCAGAAGCGUUCACGUCGCGGCCCCUGUCAGAUGCUGGUGAAUCCGCGAAUUCUGCUGU [U44G U55C] have recorded self-cleavage that is 0.3 or more?
Met

Does the variant GGGGGCCACAGCAGAAGCGUUCACGUCGCGGCCCCUGUCCGGUUCUGGUGAAUCUGCGAAUUCUGCUGU [A40C A42G] have recorded self-cleavage that is 0.3 or more?
Met

Does the variant GGGGGCCACAGCAGGAGCGUUCACGUCGCGGCCCCUGUCAGAUUCUGGUGACUCUGCGAAUUCUGCUGU [A15G A52C] have recorded self-cleavage that is 0.3 or more?
Met

Does the variant GGGGGCCACAGCAGAAGCGUUCACGUCGCGGCCCCUGUCAGGUUCUGGUGAAUCUGCCAAUUCUGCUGU [A42G G58C] have recorded self-cleavage that is 0.3 or more?
Met

Does the variant GGGGGCCACAGCAAAAGCGUUCACGUCGCGGCCCCUGUCAGAUUCUGGUGAAUCUGCGAAAUCUGCUGU [G14A U61A] have recorded self-cleavage that is 0.3 or more?
Met

Does the variant GGGGGCCACAGCAGAAGCGUUCACGUCGAGGCCCCUGUCAGAUUCUGGUGAAUCUGCGAAUUCUGCUGC [C29A U69C] have recorded self-cleavage that is 0.3 or more?
Met

Does the variant GGAGGCCACCGCAGAAGCGUUCACGUCGCGGCCCCUGUCAGAUUCUGGUGAAUCUGCGAAUUCUGCUGU [G3A A10C] have recorded self-cleavage that is 0.3 or more?
Met

Does the variant GGGGGCCACAGCAGAAGCGUUCACGUCGCGGCCCAUGUCAGAUUCUGGUGACUCUGCGAAUUCUGCUGU [C35A A52C] have recorded self-cleavage that is 0.3 or more?
Met

Does the variant GGGGGCCACAGCAGAAGCGUUCCCGUCGAGGCCCCUGUCAGAUUCUGGUGAAUCUGCGAAUUCUGCUGU [A23C C29A] have recorded self-cleavage that is 0.3 or more?
Met

Does the variant GGGUGCCACAGAAGAAGCGUUCACGUCGCGGCCCCUGUCAGAUUCUGGUGAAUCUGCGAAUUCUGCUGU [G4U C12A] have recorded self-cleavage that is 0.3 or more?
Not met
